- tgt: MAPKAP-K2 (Homo sapiens)
- procedure.details: MAPKAP-Kinase 2 Assay (33P-ATP peptide phosphorylation, filter plate)
- Assay type: biochemical
- Design: key: +: active; ++: more active; +++: very active
- measurement.setup: assays conducted at typically 1-100 μM
reported.metric: MAPKAP-K2 activity

N[C@H]1CC[C@H](Nc2cc(Nc3cccc(OC(F)(F)F)c3)n3nccc3n2)CC1; +++
NC1CCC(Nc2cc(Nc3ccc(I)cc3)n3nccc3n2)CC1 (stereo not drawn); +++
NC1CCC(Nc2cc(NCc3ccc(Cl)c(Cl)c3)n3nccc3n2)CC1 (stereo not drawn); ++
CNC(=O)NC1CCC(Nc2cc(Nc3ccc(F)c(Cl)c3)n3nccc3n2)CC1 (stereo not drawn); +
CNCCNc1cc(Nc2ccc(F)c(Cl)c2)n2nccc2n1; ++

Q: State, in one line, measured MAPKAP-K2 activity of NC1CCC(Nc2cc(Nc3ccc(Oc4ccc(Cl)cc4)cc3)n3nccc3n2)CC1 (stereo not drawn)
Ans: +++

Q: Using known records, supply MAPKAP-K2 activity for NC1CCC(Nc2cc(Nc3cccc(Oc4ccccc4)c3)n3nccc3n2)CC1 (stereo not drawn)
Ans: +++

Q: Tell us which MAPKAP-K2 activity value is on record for `Cc1ccc(Nc2cc(N[C@H]3CC[C@H](N)CC3)nc3ccnn23)cc1Cl`
Ans: +++

Q: State, in one line, measured MAPKAP-K2 activity of `CN(C)c1ccc(Nc2cc(N[C@H]3CC[C@H](N)CC3)nc3ccnn23)cc1`
Ans: +++

----------
- tgt: MAPKAP-K2 (Homo sapiens)
- procedure.details: MAPKAP-Kinase 2 Assay (33P-ATP peptide phosphorylation, filter plate)
- Format: biochemical
- Parameters: key: +: active; ++: more active; +++: very active
- measurement.setup: assays conducted at typically 1-100 μM
reported.metric: MAPKAP-K2 activity

Use these answered entries as a reference point.
Cc1cccc(C)c1Nc1cc(NC2CCC(N)CC2)nc2ccnn12 (centres unmarked); ++
Ic1ccc(Nc2cc(NC3CCCNC3)nc3ccnn23)cc1 (centres unmarked); +++
COc1ccccc1Nc1cc(NC2CCC(N)CC2)nc2ccnn12 (centres unmarked); ++
N[C@H]1CC[C@H](Nc2cc(NCc3ccccc3Cl)n3nccc3n2)CC1; ++

Q: Supply MAPKAP-K2 activity value. Item: `CN(CCN)c1cc(Nc2ccc(F)c(Cl)c2)n2nccc2n1`
Ans: +

----------
- tgt: MAPKAP-K2 (Homo sapiens, UniProt P49137)
- Sequence (P49137 whole entry): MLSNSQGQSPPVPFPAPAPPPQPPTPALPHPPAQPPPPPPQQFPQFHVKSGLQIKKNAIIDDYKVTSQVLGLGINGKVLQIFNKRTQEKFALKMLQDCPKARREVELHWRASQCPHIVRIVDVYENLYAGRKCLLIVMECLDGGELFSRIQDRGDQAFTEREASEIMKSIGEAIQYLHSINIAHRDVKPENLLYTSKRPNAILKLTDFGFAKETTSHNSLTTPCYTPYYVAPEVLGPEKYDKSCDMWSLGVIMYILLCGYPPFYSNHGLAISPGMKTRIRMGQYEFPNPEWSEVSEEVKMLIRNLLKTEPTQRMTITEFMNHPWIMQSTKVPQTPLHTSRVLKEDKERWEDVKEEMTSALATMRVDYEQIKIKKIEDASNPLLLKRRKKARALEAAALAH
- procedure.details: MAPKAP-Kinase 2 Assay (33P-ATP peptide phosphorylation, filter plate)
- Type: biochemical
- Parameters: key: +: active; ++: more active; +++: very active
- measurement.setup: assays conducted at typically 1-100 μM
- Procedure: MAPKAP-Kinase 2 Assay [Compound Preparation] Compounds are dissolved in DMSO at a concentration of 3 mM and stored in aliquots at −20° C. Compounds in DMSO from these stock aliquots are diluted in 30% DMSO to produce initial working stock solutions of 1 mM and 3 mM. Both of these stock solutions are then subjected to 1:10 serial dilutions in 30% DMSO in order to prepare 3000, 1000, 300, 100, 30, 10, 3, 1, 0.1, 0.01 μM stock solutions. […]
reported.metric: MAPKAP-K2 activity

Please review the following examples before continuing.
Fc1ccc(Nc2cc(NC3CCC(NCc4ccsc4)CC3)nc3ccnn23)cc1Cl (stereo not shown); ++
Cc1ccc(Nc2cc(NC3CCC(N)CC3)nc3ccnn23)cc1C (stereo not shown); +++
COc1ccc(Nc2cc(N[C@H]3CC[C@H](N)CC3)nc3ccnn23)cc1Cl; +++
NCCNc1cc(Nc2ccc(F)c(Cl)c2)n2nccc2n1; +
N[C@H]1CC[C@H](Nc2cc(Nc3ccc(F)cc3)n3nccc3n2)CC1; +++

Q: Look up MAPKAP-K2 (Homo sapiens, UniProt P49137) data: MAPKAP-K2 activity of NC1CCCN(c2cc(Nc3ccc(F)c(Cl)c3)n3nccc3n2)C1 (stereo not shown) , then report it.
Ans: ++

Q: Fill in: MAPKAP-K2 activity on MAPKAP-K2 (Homo sapiens, UniProt P49137), entry Ic1cccc(Nc2cc(NC3CCCNC3)nc3ccnn23)c1 (stereo not shown)
Ans: +++

Q: # return MAPKAP-K2 activity of `N[C@H]1CC[C@H](Nc2cc(Nc3cccc(OCc4ccccc4)c3)n3nccc3n2)CC1` (system: MAPKAP-K2 (Homo sapiens, UniProt P49137))
Ans: +++

Q: # assay system MAPKAP-K2 (Homo sapiens, UniProt P49137): give MAPKAP-K2 activity of CC(C)c1ccc(Nc2cc(NC3CCC(N)CC3)nc3ccnn23)cc1 (stereo not shown)
Ans: +++
